targetUnderTest: T1, mouse tissue factor pathway inhibitor (TFPI) (mouse, UniProt O54819 29-289, limits assumed)
T1 construct: bought; also called mTFPI; murine TFPI
T1 sequence (looked up): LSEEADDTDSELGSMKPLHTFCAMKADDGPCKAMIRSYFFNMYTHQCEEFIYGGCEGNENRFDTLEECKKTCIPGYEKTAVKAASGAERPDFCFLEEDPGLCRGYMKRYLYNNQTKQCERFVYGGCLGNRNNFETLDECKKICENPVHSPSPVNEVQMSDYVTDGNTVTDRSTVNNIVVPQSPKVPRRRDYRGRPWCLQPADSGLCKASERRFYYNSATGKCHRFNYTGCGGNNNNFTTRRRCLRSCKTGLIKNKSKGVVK
methodNotes: equilibrium ELISA
metric: variant/wild-type (ratio)
Note: unit ratio is implicit; provide only the numeric part.

Recorded results for 4 binders are shown here.
[
  {
    "binder": "4B7 HC_S30R HC_S57K (Fab, V domains shown) VH: QVQLQQSGPGLVKPSQTLSLTCAISGDSVRSNSAAWSWIRQSPGRGLEWLGIIYKRKKWYNDYAVSVKSRITINPDTSKNQFSLQLNSVTPEDTAVYYCARWHSDKHWGFDYWGQGTLVTVSS VL: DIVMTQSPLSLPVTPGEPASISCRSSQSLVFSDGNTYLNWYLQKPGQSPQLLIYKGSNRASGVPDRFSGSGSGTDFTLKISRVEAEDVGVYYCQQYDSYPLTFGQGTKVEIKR",
    "unit": "ratio",
    "variant/wild-type": 6.6
  },
  {
    "binder": "4B7 LC_N35T (Fab, V domains shown) VH: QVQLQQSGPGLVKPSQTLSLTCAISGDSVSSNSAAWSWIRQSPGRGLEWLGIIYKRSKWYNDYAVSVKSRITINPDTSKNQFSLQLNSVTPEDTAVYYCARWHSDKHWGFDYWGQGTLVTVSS VL: DIVMTQSPLSLPVTPGEPASISCRSSQSLVFSDGTTYLNWYLQKPGQSPQLLIYKGSNRASGVPDRFSGSGSGTDFTLKISRVEAEDVGVYYCQQYDSYPLTFGQGTKVEIKR",
    "unit": "ratio",
    "variant/wild-type": 3.4
  },
  {
    "binder": "4B7 HC_N32E (Fab, V domains shown) VH: QVQLQQSGPGLVKPSQTLSLTCAISGDSVSSESAAWSWIRQSPGRGLEWLGIIYKRSKWYNDYAVSVKSRITINPDTSKNQFSLQLNSVTPEDTAVYYCARWHSDKHWGFDYWGQGTLVTVSS VL: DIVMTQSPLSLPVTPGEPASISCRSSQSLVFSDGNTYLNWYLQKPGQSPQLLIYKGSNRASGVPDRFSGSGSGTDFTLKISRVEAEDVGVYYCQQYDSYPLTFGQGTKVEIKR",
    "unit": "ratio",
    "variant/wild-type": 2.1
  },
  {
    "binder": "4B7 LC_F31M (Fab, V domains shown) VH: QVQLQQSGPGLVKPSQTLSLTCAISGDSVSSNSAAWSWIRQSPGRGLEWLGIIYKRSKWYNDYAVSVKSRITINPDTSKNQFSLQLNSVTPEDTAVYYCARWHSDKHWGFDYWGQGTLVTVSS VL: DIVMTQSPLSLPVTPGEPASISCRSSQSLVMSDGNTYLNWYLQKPGQSPQLLIYKGSNRASGVPDRFSGSGSGTDFTLKISRVEAEDVGVYYCQQYDSYPLTFGQGTKVEIKR",
    "unit": "ratio",
    "variant/wild-type": 1.3
  }
]

// next entry
Request: Form field: reported variant/wild-type of 4B7 HC_N61G (Fab, V domains shown) VH: QVQLQQSGPGLVKPSQTLSLTCAISGDSVSSNSAAWSWIRQSPGRGLEWLGIIYKRSKWYGDYAVSVKSRITINPDTSKNQFSLQLNSVTPEDTAVYYCARWHSDKHWGFDYWGQGTLVTVSS VL: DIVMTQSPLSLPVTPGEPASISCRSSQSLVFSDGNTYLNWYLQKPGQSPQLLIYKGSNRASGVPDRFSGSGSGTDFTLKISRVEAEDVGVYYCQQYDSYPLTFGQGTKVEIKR
Response: 1.4
